test_name: Lipophilicity, log P of the compound
Format: physicochemical
condition_details: octanol/water

| molecule | logP |
| --- | --- |
| CN1C2CCC1[C@@H](CN(C(=O)OC(C)(C)C)c1cccc([18F])n1)[C@@H](c1ccc(Cl)cc1)C2 (stereo partly specified) | 1.88 |

###

target_system: Sodium-dependent serotonin transporter (Homo sapiens, UniProt P31645)
Sequence (P31645 whole entry): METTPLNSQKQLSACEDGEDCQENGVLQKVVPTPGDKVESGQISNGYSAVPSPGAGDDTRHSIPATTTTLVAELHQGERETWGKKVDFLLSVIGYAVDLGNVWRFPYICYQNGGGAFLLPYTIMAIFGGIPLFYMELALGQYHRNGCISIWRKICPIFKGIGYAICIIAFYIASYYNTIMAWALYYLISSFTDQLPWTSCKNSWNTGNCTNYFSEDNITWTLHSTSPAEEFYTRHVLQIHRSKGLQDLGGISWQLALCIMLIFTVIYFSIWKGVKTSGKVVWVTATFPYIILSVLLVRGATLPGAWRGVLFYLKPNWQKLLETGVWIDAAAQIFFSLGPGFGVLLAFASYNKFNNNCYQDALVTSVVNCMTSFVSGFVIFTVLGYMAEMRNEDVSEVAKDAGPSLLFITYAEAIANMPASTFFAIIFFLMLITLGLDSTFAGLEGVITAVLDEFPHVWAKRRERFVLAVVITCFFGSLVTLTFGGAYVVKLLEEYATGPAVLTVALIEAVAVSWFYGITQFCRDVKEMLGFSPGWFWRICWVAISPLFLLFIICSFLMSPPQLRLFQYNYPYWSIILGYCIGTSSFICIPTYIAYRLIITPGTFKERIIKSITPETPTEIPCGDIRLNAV
test_name: Displacement of [125I]-IDAM from SERT transfected in pig LLC-PK1 cells by radioligand competition binding assay
Criterion: Ki strictly less than 20 nM. Met: yes (1). Not met: no (0).

| molecule | classification |
| --- | --- |
| CN1C2CCC1[C@@H](C(=O)Nc1ccc(Br)nc1)[C@@H](c1ccc(Cl)cc1)C2 (some centres undefined) | no (0) |
| CN1C2CCC1[C@@H](C(=O)Nc1cccc(F)n1)[C@@H](c1ccc(Cl)cc1)C2 (some centres undefined) | no (0) |
| CN1C2CCC1[C@@H](CNc1cccc(Br)n1)[C@@H](c1ccc(Cl)cc1)C2 (some centres undefined) | yes (1) |
| COC(=O)[C@H]1[C@@H](c2ccc(F)cc2)C[C@H]2CC[C@H]1N2C | no (0) |
| CN1C2CCC1[C@@H](C(=O)Nc1cccc(Br)n1)[C@@H](c1ccc(Cl)cc1)C2 (some centres undefined) | no (0) |
| CN1C2CCC1[C@@H](C(=O)Nc1ccnc(Br)c1)[C@@H](c1ccc(Cl)cc1)C2 (some centres undefined) | no (0) |
| CN1C2CCC1[C@@H](CNc1ccc(Br)nc1)[C@@H](c1ccc(Cl)cc1)C2 (some centres undefined) | yes (1) |
| CN1C2CCC1[C@@H](CNc1ccnc(Br)c1)[C@@H](c1ccc(Cl)cc1)C2 (some centres undefined) | yes (1) |
| CN1C2CCC1[C@@H](CNc1cccc(F)n1)[C@@H](c1ccc(Cl)cc1)C2 (some centres undefined) | no (0) |
